# target-desc: Human Factor D (Homo sapiens (Human))
# assay-details: Human Factor D Assay
# Type: biochemical
# experimental-setup: Table 7; read-out: IC5 (Stars)
pIC50: −log10 of the molar value.
// reported pIC50 per item

# molecule, pIC50
data = [
    ("COc1ncc(-c2cc(CC(=O)N3[C@H](C(=O)Nc4nc(Br)ccc4C)C[C@@]4(C)C[C@@H]34)cc(-c3cnc(OC)nc3)c2)cn1", "< 5.00"),
    ("Cc1ncc(-c2cc(C#N)cc(CC(=O)N3[C@H](C(=O)Nc4nc(Br)ccc4C)C[C@@]4(C)C[C@@H]34)c2)cn1 [Compound T-115]", "5.00 to 6.00"),
    ("CCOP(=O)(COc1ccc2c(C(C)=O)nn(CC(=O)N3C[C@H](F)C[C@H]3C(=O)Nc3nc(Br)ccc3C)c2c1)OCC", "> 6.00"),
    ("Cc1ccc(Br)nc1NC(=O)[C@@H]1C[C@@]2(C)C[C@H]2N1C(=O)Cn1nc(N2CCC2=O)c2ccncc21", "> 6.00"),
    ("CC(=O)c1nn(CC(=O)N2[C@H](C(=O)Nc3nc(Br)ccc3C)C[C@@]3(CNC(=O)COCCOCCNC(=O)COCCOCCNC(=O)CCCCCCCCCCCCCCCCC(=O)O)C[C@@H]23)c2ccc(OC(=O)NC3CC3)cc12", "> 6.00"),
    ("CC(=O)c1cc(CC(=O)N2C[C@H](F)C[C@H]2C(=O)Nc2cccc(-c3ccccc3Cl)c2F)cc(-c2cnc(C)nc2)c1", "> 6.00"),
    ("Cc1ccc(Br)nc1NC(=O)C1CC2(C)CC2N1C(=O)Cn1nc(NCCC(=O)O)c2ccncc21 (stereo not shown)", "< 5.00"),
    ("CC(=O)c1nn(CC(=O)N2C(C(=O)Nc3nc(Br)ccc3C)C[C@@]3(Cn4cc(C5CC5)nn4)C[C@@H]23)c2cnccc12 (stereo partly shown)", "> 6.00"),
    ("Cc1ccc(Br)nc1NC(=O)[C@@H]1C[C@@]2(C)C[C@H]2N1C(=O)Cn1nc(N2CCCC2=O)c2ccncc21", "< 5.00"),
    ("Cc1ccc(Br)nc1NC(=O)[C@@H]1C[C@@]2(C)C[C@H]2N1C(=O)Cc1ccc2[nH]nc(C#N)c2c1", "< 5.00"),
    ("CCP(=O)(O)COc1ccc2c(C(C)=O)nn(CC(=O)N3C[C@H](F)C[C@H]3C(=O)Nc3nc(Br)ccc3C)c2c1", "> 6.00"),
    ("CCOP(=O)(CC)COc1ccc2c(C(C)=O)nn(CC(=O)N3C[C@H](F)C[C@H]3C(=O)Nc3nc(Br)ccc3C)c2c1 (stereo partly shown)", "> 6.00"),
    ("COc1cc(CC(=O)N2[C@H](C(=O)Nc3nc(Br)ccc3C)C[C@@]3(C)C[C@@H]23)cc(-c2cnc(OC)nc2)c1 [Compound T-97]", "5.00 to 6.00"),
]

----------
// reported IC50 per item
# target-desc: Human Factor D (Homo sapiens (Human), UniProt P00746)
# Sequence (P00746 26-253): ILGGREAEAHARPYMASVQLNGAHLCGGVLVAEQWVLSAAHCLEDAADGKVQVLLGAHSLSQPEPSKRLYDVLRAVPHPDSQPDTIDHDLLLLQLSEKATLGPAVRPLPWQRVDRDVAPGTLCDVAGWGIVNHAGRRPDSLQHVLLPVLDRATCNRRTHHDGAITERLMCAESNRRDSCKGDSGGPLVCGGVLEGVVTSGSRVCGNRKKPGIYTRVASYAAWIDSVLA
# assay-details: Human Factor D Assay
# Type: biochemical
# experimental-setup: Table 5; Human Factor D 80 nM, substrate Z-L-Lys-SBzl; read-out: IC50 (Stars)
property-name: IC50

# compound, target-desc, result
measured = [
    ("CC(=O)c1cn(CC(=O)N2[C@H](C(=O)NCc3cccc(Cl)c3F)C[C@@]3(CN(C)C)C[C@@H]23)c2cc(P(C)(=O)O)ccc12", "Human Factor D (Homo sapiens (Human), UniProt P00746)", "< 1000 nM"),
    ("CC(=O)c1cc(C(=O)N2CCC(F)(F)C2)n(CC(=O)N2C[C@H](F)C[C@H]2C(=O)Nc2cccc(Br)n2)c1", "Human Factor D (Homo sapiens (Human), UniProt P00746)", "> 10000 nM"),
    ("CC(=O)c1nn(CC(=O)N2[C@H](C(=O)Nc3nc(Br)ccc3C)C[C@@]3(C)C[C@@H]23)c2c(S(C)=N)cccc12 (stereo partly shown)", "Human Factor D (Homo sapiens (Human), UniProt P00746)", "< 1000 nM"),
    ("CC(=O)c1cn(CC(=O)N2[C@H]3C[C@@]3(CN(C)C)C[C@H]2C(=O)NCc2cccc(Cl)c2F)c2cc(P(C)(=O)O)ccc12", "Human Factor D (Homo sapiens (Human), UniProt P00746)", "1000 to 10000 nM"),
    ("CC(=O)c1nn(CC(=O)N2[C@H](C(=O)Nc3nc(Br)ccc3C)C[C@@]3(CN4C[C@H]5CCC[C@H]5C4)C[C@@H]23)c2c(C)cccc12", "Human Factor D (Homo sapiens (Human), UniProt P00746)", "< 1000 nM"),
    ("CC(=O)c1cn(CC(=O)N2[C@H]3C[C@@]3(CN3CCN(C)CC3)C[C@H]2C(=O)NCc2cccc(Cl)c2F)c2cc(P(=O)(O)O)ccc12", "Human Factor D (Homo sapiens (Human), UniProt P00746)", "1000 to 10000 nM"),
    ("CC(=O)c1nn(CC(=O)N2C[C@H](F)C[C@H]2C(=O)Nc2cccc(Br)n2)c2cc(/S(C)=N/C(=O)C(F)(F)F)ccc12 (stereo partly shown)", "Human Factor D (Homo sapiens (Human), UniProt P00746)", "< 1000 nM"),
    ("CC(=O)c1nn(CC(=O)N2C[C@H](F)C[C@H]2C(=O)NCC23C4C5C6C4C2C6C53)c2ccccc12 (stereo partly shown)", "Human Factor D (Homo sapiens (Human), UniProt P00746)", "1000 to 10000 nM"),
    ("NC(=O)c1nn(CC(=O)N2C[C@H](F)C[C@H]2C(=O)Nc2cccc(Br)n2)cc1/C=C/C(=O)NC1CC1", "Human Factor D (Homo sapiens (Human), UniProt P00746)", "1000 to 10000 nM"),
    ("CC(=O)c1cc(C(=O)NCc2cnc(C)nc2)n(CC(=O)N2C[C@H](F)C[C@H]2C(=O)Nc2cccc(Br)n2)c1", "Human Factor D (Homo sapiens (Human), UniProt P00746)", "< 1000 nM"),
    ("CC(=O)c1cc(C(=O)O)n(CC(=O)N2C[C@H](F)C[C@H]2C(=O)Nc2cccc(Br)n2)c1", "Human Factor D (Homo sapiens (Human), UniProt P00746)", "< 1000 nM"),
    ("CC(=O)c1nn(CC(=O)N2[C@H](C(=O)Nc3nc(Br)ccc3C)C[C@@]3(C)C[C@@H]23)c2c(S(C)(=N)=O)cccc12 (stereo partly shown)", "Human Factor D (Homo sapiens (Human), UniProt P00746)", "< 1000 nM"),
    ("CC(=O)c1cc(C(=O)NCc2cscn2)n(CC(=O)N2C[C@H](F)C[C@H]2C(=O)Nc2cccc(Br)n2)n1", "Human Factor D (Homo sapiens (Human), UniProt P00746)", "< 1000 nM"),
]
